Tested on: Murine norovirus (MNV)
protocol: Murine norovirus plaque assay
Type: cell-based
measurement_parameters: Norwalk virus, RAW264.7, MNV, murine macrophages (RAW264.7 or bone marrow derived), 5 μM, 30 min pre-treatment, 8-12 hr; read-out: Log inhibition by plaque assay
measured_quantity: log reduction at 5 µM
Number, no unit, nothing else.

Ask: Given the entry CCCC(NC(=O)/C(C#N)=C/c1cccc(F)n1)c1ccc(OCCN2CCOCC2)cc1 (stereo not drawn) , what log reduction at 5 µM was observed with Murine norovirus (MNV)?
Result: 1

Ask: How about this compound: `CCC[C@H](NC(=O)/C(C#N)=C/c1ncc[nH]1)c1ccccc1`
Result: 0.5

Ask: How about this compound: CCCC(NC(=O)/C(C#N)=C/c1cccc(Br)n1)c1ccc(OCCN(C)C)cc1 (stereo not drawn)
Result: 2

Ask: How about this compound: CCCC(NC(=O)/C=C/c1cccc(Br)n1)c1ccc(OCCOCCOCCNC(=O)CCCC[C@@H]2SC[C@@H]3NC(=O)N[C@@H]32)cc1 (stereo partly drawn)
Result: 0

Ask: How about this compound: `CCC[C@H](NC(=O)/C(C#N)=C/c1cccc(Cl)n1)c1ccccc1`
Result: 2

Ask: How about this compound: CCCC(NC(=O)/C(C#N)=C/c1cccc(F)n1)c1ccc(OCCN(CC)CC)cc1 (stereo not drawn)
Result: 2

Ask: How about this compound: `CCC[C@H](NC(=O)/C(C#N)=C/c1cccc(F)n1)c1ccccc1`
Result: 2

Ask: How about this compound: CCCC(NC(=O)/C(C#N)=C/c1ncc[nH]1)c1ccc(OCCN(C)C)cc1 (stereo not drawn)
Result: 0.5

Ask: How about this compound: CCCC(NC(=O)/C(C#N)=C/c1cccc(F)n1)c1ccc(OCCN2CCCC2)cc1 (stereo not drawn)
Result: 2

Ask: How about this compound: CCCC(NC(=O)/C(C#N)=C/c1cccc(Br)n1)c1ccc(OCCOCCOCCNC(=O)CCCC[C@@H]2SC[C@@H]3NC(=O)N[C@@H]32)cc1 (stereo partly drawn)
Result: 1.5
